# maps each entry to its pIC50
- target_desc: IDO1 (Homo sapiens, UniProt P14902)
- Sequence (P14902 whole entry): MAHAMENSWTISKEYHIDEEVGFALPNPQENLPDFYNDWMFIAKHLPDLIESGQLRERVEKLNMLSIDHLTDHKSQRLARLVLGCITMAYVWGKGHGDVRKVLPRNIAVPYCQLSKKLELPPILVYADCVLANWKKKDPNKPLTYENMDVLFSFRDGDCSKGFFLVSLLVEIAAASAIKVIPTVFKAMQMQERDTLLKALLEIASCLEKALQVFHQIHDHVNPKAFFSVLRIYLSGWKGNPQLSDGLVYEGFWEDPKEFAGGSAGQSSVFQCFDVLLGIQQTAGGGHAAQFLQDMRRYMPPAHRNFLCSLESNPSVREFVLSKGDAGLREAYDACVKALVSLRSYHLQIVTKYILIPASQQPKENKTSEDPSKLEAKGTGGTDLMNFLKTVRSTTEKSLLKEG
- experimental_protocol: IDO1 Cellular Assay in HeLa Cells Stimulated with IFNγ
- Assay type: cell-based
- applied_conditions: IFNγ 100 ng/mL, 300 uM L-tryptophan, about 48 hours, fluorescence readout, read-out: IDO1 HELA Cell Assay, IC50
// pIC50: -log10(molar conc.)

Worked set:
{"compound": "C[C@@H]1CN(C(=O)c2nn(CC(=O)N3CCC(c4ccc(F)cc4F)CC3)c3c2CCC3)C[C@H](C)O1 [Example 165]", "target_desc": "IDO1 (Homo sapiens, UniProt P14902)", "property_measured": "pIC50", "observed_measurement": 6.63}
{"compound": "C[C@@H]1CN(C(=O)c2nn(CC(=O)N3CCC(c4ccc(F)c(C(F)F)c4)CC3)c3c2CCC3)C[C@H](C)O1 [Example 133]", "target_desc": "IDO1 (Homo sapiens, UniProt P14902)", "property_measured": "pIC50", "observed_measurement": 7.09}

Find the measured pIC50: item Cc1cc(F)ccc1C1CCN(C(=O)Cn2nc(C(=O)N3CC[C@@H](O)[C@@H](F)C3)c3c2CCC3)CC1 [Example 55] , target or system IDO1 (Homo sapiens, UniProt P14902).
6.78

# query: pIC50 | item Cc1cccc(C2CCN(C(=O)Cn3nc(C(=O)N4CCC(O)CC4)c4c3CCCC4)CC2)c1C [Example 34] | system: IDO1 (Homo sapiens, UniProt P14902)
8.92

Reported pIC50 for IDO1 (Homo sapiens, UniProt P14902), given Cc1cccc(C2CCN(C(=O)Cn3nc(C(=O)N4CC(C)(O)C4)c4c3CCC4)CC2)c1C [Example 50] ?
7.40

What reported pIC50 corresponds to C[C@@H]1CN(C(=O)c2nn(CC(=O)N3CCC(c4ccc5ccccc5c4)CC3)c3c2CCC3)C[C@H](C)O1 [Example 76] on IDO1 (Homo sapiens, UniProt P14902)?
6.70

# get_value(readout= pIC50, system= IDO1 (Homo sapiens, UniProt P14902)) for Cc1cccc(C2(F)CCN(C(=O)Cn3nc(C(=O)N4CCC(O)CC4)c4c3C[C@H]3C[C@@H]43)CC2)c1C [Example 10]
8.47
